meta.source: PubChem BioAssay (NCI)

Below: a set of entries, each annotated with reported growth.
System: K-562 leukemia
Test: NCI-60 one-dose screen, 48 h (100 = growth as untreated, 0 = no growth, -100 = all killed)
Conditions: 10 µM unless noted
Method: Cells are grown in 96 well plates and exposed to the test compound for 48 hours. Compounds are tested at a single concentration, which is 10^-5 M for most compounds. The reported endpoint is percent growth (GI% or GIPRCNT), where numbers from 0 - 100% represent growth inhibition, and numbers from -100% - 0 represent cell death. For example, a value of 40 represents 60% growth inhibition. A value of 0 means no net growth occurred over the course of the experiment. […]
The panel holds about 83,000 compounds, 20% with a hit somewhere; the sample as a whole holds those more often.
parameter: growth (%)

compound="CC(C)c1ccc2c(c1)CCC1C2CCCC1(C)NCc1ccccc1 (stereo not drawn)" parameter=growth obsvalue=11.1
compound=CC(C)CCSc1nc(-c2ccc(F)cc2)c(C#N)c(N2CCCCC2)n1 parameter=growth obsvalue=78.8
compound=C[C@@H]1N=C(c2ccc3ccccc3c2)Nc2nc3ccccn3c2C1=O parameter=growth obsvalue=27.6
compound=CCN(CC)Cc1cc(Nc2ccnc3ccc(OC)cc23)ccc1O parameter=growth obsvalue=12.7
compound="COc1ccc2c(c1)N(Cc1ccc(Cl)cc1)CCC2N1CCCC1=O (stereo not drawn)" parameter=growth obsvalue=47.4
compound=O=C(Nc1ccc([N+](=O)[O-])cc1)c1cc2ccccc2cc1O parameter=growth obsvalue=0.836
compound=O=C(CSc1nc2c(n1Nc1ccccc1)-c1ccccc1SC2)Nc1nccs1 parameter=growth obsvalue=84.8
compound="CC(=O)N1N=C(C2C(=O)N(C)C(=O)N(C)C2=O)CC1c1ccccc1C(=O)O (stereo not drawn)" parameter=growth obsvalue=87.5
compound=COc1cnc2c(c1)C(=O)c1c-2n(CCCN2CCNCC2)c(=O)c2cc(Cl)ccc12 parameter=growth obsvalue=-75.8
compound=CC(C)c1cccc(C#N)c1 parameter=growth obsvalue=109
compound=COc1ccc(/C=C/c2nc(NCCCN(C)C)c3ccccc3n2)cc1 parameter=growth obsvalue=-75.3
compound=COc1cc2ncnc(Nc3ccc(S(=O)(=O)Nc4cc(C)on4)cc3)c2cc1OCCCN1CCN(c2ccc([N+](=O)[O-])cc2)CC1 parameter=growth obsvalue=120
compound=COCc1nc(NS(=O)(=O)c2ccc(N)cc2)nc(C)c1Br parameter=growth obsvalue=98
compound=O=C(/C=C/c1cn(-c2ccccc2)nc1-c1ccccc1)OCc1cn(-c2cccc([N+](=O)[O-])c2)nn1 parameter=growth obsvalue=76.2
compound=CSc1nc(N)c2[nH]c(-c3cc4ccccc4[nH]c3=O)nc2n1 parameter=growth obsvalue=92.7
compound=COc1cc(/C=N/NC(=O)Cn2c(-c3ccc(C)o3)nc3ccccc32)ccc1OCc1ccccc1 parameter=growth obsvalue=65.5
compound=CNCCCn1c2c(c3ccc(Cl)cc3c1=O)C(=O)c1cc(OC)cnc1-2 parameter=growth obsvalue=-66
compound=c1ccc(-c2ccc(-c3ccccc3)[nH]2)cc1 parameter=growth obsvalue=81.1
compound="CCN1C(=O)N(CC)C2C1NN=c1s/c(=C\\c3ccc(Br)cc3)c(=O)n12 (stereo not drawn)" parameter=growth obsvalue=4.55
compound=O=C(Nc1cccc(-n2ccc3c(NC(=O)c4ccccc4)nccc32)c1)c1ccc(N2CCOCC2)c(C(F)(F)F)c1 parameter=growth obsvalue=5.25
compound="O=C(CSc1nnc(Cc2ccccc2Nc2c(Cl)cccc2Cl)n1-c1ccccc1)N1N=C(c2ccc3ccccc3c2)CC1c1ccc(Cl)cc1 (stereo not drawn)" parameter=growth obsvalue=101
compound=COc1ccc(-c2nc(SCCC(C)C)nc(Nc3ccc(C(=O)O)cc3)c2C#N)cc1 parameter=growth obsvalue=67.8
compound=Oc1ccc(-c2nc3ccccc3s2)cc1CN(Cc1ccccn1)Cc1ccccn1 parameter=growth obsvalue=11.8
compound=C=C1C(=O)O[C@H]2[C@H]1CC/C(COC(=O)NCc1cccc(OC)c1)=C\CC[C@@]1(C)O[C@@H]21 parameter=growth obsvalue=4.46
compound="CC(C)(C)[Si](C)(C)OC1[C@@H](O[Si](C)(C)C(C)(C)C)[C@@H](CNC(=O)NC(=O)NC(=O)CI)O[C@H]1n1cnc2c(NC(=O)Nc3ccccc3)ncnc21 (stereo partly drawn)" parameter=growth obsvalue=52.3
compound=O=c1nc(-c2ccccc2)c2cc(-c3ccc(N4CCOCC4)cc3)ccc2[nH]1 parameter=growth obsvalue=71.8
compound=O=C(CCl)Nc1cc(O)c2c(c1)C(=O)c1cccc(O)c1C2=O parameter=growth obsvalue=-46.2
compound="CCCCc1nc(Cl)c(C2CC(c3ccc(S(N)(=O)=O)cc3)=NN2c2cc(Cl)cc(Cl)c2)[nH]1 (stereo not drawn)" parameter=growth obsvalue=16

====

System: UACC-62 melanoma
Assay: NCI-60 one-dose screen, 48 h (100 = growth as untreated, 0 = no growth, -100 = all killed)
Conditions: 10 µM unless noted
Protocol: Growth inhibition of the UACC-62 human tumor cell line is measured as a screen for anti-cancer activity. Cells are grown in 96 well plates and exposed to the test compound for 48 hours. Compounds are tested at a single concentration, which is 10^-5 M for most compounds. The reported endpoint is percent growth (GI% or GIPRCNT), where numbers from 0 - 100% represent growth inhibition, and numbers from -100% - 0 represent cell death. For example, a value of 40 represents 60% growth inhibition. […]
About 83,000 compounds went through this panel and 20% of them were active in at least one assay; those are over-represented in the sample as a whole.
Below: a set of entries, each annotated with reported growth.
parameter: growth (%)

compound="CC1=CCC2C1CC=C(C)C(CC[C@H]1[C@@](C)(O)CCC3OC(C)(C)[C@H](OC(=O)c4ccccc4)CC[C@@]31C)C2(C)C (stereo partly drawn)" parameter=growth obsvalue=67.4
compound=COc1ccc(/C=C/c2nc(NCCCN(C)C)c3ccccc3n2)cc1 parameter=growth obsvalue=104
compound="CCN1C(=O)/C(=C/N2N=C(c3ccc(Cl)cc3)CC2c2ccc(OC)cc2)SC1=S (stereo not drawn)" parameter=growth obsvalue=70.8

====

Below: a set of entries, each annotated with reported growth.
tested on: NCI-H226 lung; test: NCI-60 one-dose screen, 48 h (100 = growth as untreated, 0 = no growth, -100 = all killed); settings: 10 µM unless noted
The panel holds about 83,000 compounds, 20% with a hit somewhere; the sample as a whole holds those more often.
parameter: growth (%)

molecule=O=C(N/N=C/c1ccc([N+](=O)[O-])o1)c1ccc(O)cc1 system="NCI-H226 lung" unittext=% obsvalue=89.7
molecule=CCNC(=O)c1ccc2c(c1)nc(-c1ccc(Cl)cc1)n2-c1cc(C(C)(C)C)[nH]n1 system="NCI-H226 lung" unittext=% obsvalue=46.9
molecule="COc1cc(C2CC(c3ccc(Cl)cc3)=NN2C(C)=O)ccc1Oc1ccnc2cc(Cl)ccc12 (centres undefined)" system="NCI-H226 lung" unittext=% obsvalue=19.5
molecule=COc1ccc(Cl)cc1Nc1nc(C(F)(F)F)ccc1C(=O)NN system="NCI-H226 lung" unittext=% obsvalue=24.1

====

tested on: SN12C renal; assay: NCI-60 one-dose screen, 48 h (100 = growth as untreated, 0 = no growth, -100 = all killed); settings: 10 µM unless noted
The panel holds about 83,000 compounds, 20% with a hit somewhere; the sample as a whole holds those more often.
parameter: growth (%)

chemicalstructure=CCCCCCCCCCCCCCCCCC1=NCCN1CCO system="SN12C renal" parameter=growth obsvalue=86
chemicalstructure=O=S1(=O)NCCCN1CCNc1nccc(-c2c(-c3cccc(O)c3)nc3sccn23)n1 system="SN12C renal" parameter=growth obsvalue=43.4
chemicalstructure=O/N=C/c1ccncc1 system="SN12C renal" parameter=growth obsvalue=121
chemicalstructure=COc1cc([N+](=O)[O-])cc(OC)c1OC system="SN12C renal" parameter=growth obsvalue=101
chemicalstructure=O=C(Nc1cccc(Cl)c1)Nc1ccccc1Cl system="SN12C renal" parameter=growth obsvalue=81.5
chemicalstructure=C(=Nc1ccc(-c2ccc(N=Cc3ccccc3)cc2)cc1)c1ccccc1 system="SN12C renal" parameter=growth obsvalue=93.3

====

tested on: CCRF-CEM leukemia; assay: NCI-60 one-dose screen, 48 h (100 = growth as untreated, 0 = no growth, -100 = all killed); conditions: 10 µM unless noted
This is part of a sample that, as a whole, favours compounds with a hit. Of some 83,000 tested, about 20% had one in any assay. Calls of active or inactive are those of the source. How the source made its calls: active means growth percent below 10; inactive means the rest.
Below: a set of entries, each annotated with reported growth.
parameter: growth

compound="CC[C@]1(O)C[C@H]2CN(CCc3c([nH]c4ccccc34)C(C(=O)OC)(c3cc4c(cc3OC)N(C)[C@H]3[C@@](O)(C(=O)OC)[C@H](OC(C)=O)[C@]5(CC)[C@@H]6C[C@@H]6CN6CC[C@]43[C@@H]65)C2)C1 (stereo partly specified)" parameter=growth obsvalue="4.35% (active)"
compound=CCCCOc1nc2ccccc2cc1/C=C/c1cc(/C=C/c2cc3ccccc3nc2OCCCC)n(-c2ccccc2)n1 parameter=growth obsvalue="101% (inactive)"
compound=Cc1ccc(OC2=C(C#N)C(=N)N3C(=NN2)Sc2c(C)ccc(C)c23)cc1 parameter=growth obsvalue="94.9% (inactive)"
compound=O=C(NO)c1ccc(CNc2cccc3nc(C4CC4)n(-c4ccccc4)c(=O)c23)cc1 parameter=growth obsvalue="-13.3% (active)"
compound=CC(C)CCSc1nc(-c2ccc(F)cc2)c(C#N)c(N2CCN(C)CC2)n1 parameter=growth obsvalue="78.9% (inactive)"
compound=CC(=O)c1ccc(Br)c([N+](=O)[O-])c1 parameter=growth obsvalue="98.1% (inactive)"
